System: Human papillomavirus type 1a E7 protein (residues 1-88)
Assay: HPV1a E7 small-molecule binders, primary screen, biochemical, small-molecule microarray, residues 1-88, 635 nm (AID 1129)
Conditions: small-molecule microarray binding, fluorescence 635 nm; higher = more signal
Each record here notes measured composite z-score.

CCCN1C(=O)[C@@]2(Cc3ccccc3)N=C(c3ccc(OCCCO)cc3)O[C@H]2c2ccccc21 | 1.08
CCCC=C(CCC)[C@@H](NC(=O)Cc1ccccc1)c1ccc(C(=O)OC)cc1 | 0.821
C=CCNC(=O)[C@@H]1[C@H]2C(=O)O[C@H](c3ccccc3)[C@H](c3ccccc3)N2[C@H](c2ccc(O)cc2)[C@@]12C(=O)Nc1ccc(C#CCCO)cc12 | -0.756
CCOC(=O)C[C@H]1[C@H](OC(=O)c2ccc(C(=O)c3ccccc3)cc2)[C@@H](NC(=O)C2CCCCC2)c2cc(OCCCO)ccc2N1C(=O)Cc1ccc(OC)cc1 | 0.785
CC(C)C(CO)N1C(=O)[C@@H]2[C@H]3C(=O)OCC=C[C@H]3OC23C=CCN(Cn2nnc4ccccc42)C(=O)[C@@H]13 (stereo partly drawn) | -0.938

--- query ---
q: Using the record for "COC(=O)[C@]1(Cc2ccccc2CN=[N+]=[N-])N=C(c2ccc(OCCCO)cc2)O[C@@H]1c1ccccc1CN=[N+]=[N-]" , report its composite z-score.
a: 1.15

Where do the numbers come from? From PubChem BioAssay.
